system: HEK-293T; assay: Multiplex assay against HEK293T; type: toxicity, cell-based; details: human, 24 h, 10 µM, compound concentration 10 uM, replicate 1
Class boundaries, taken from values of Population Pyknosed Nuclei (%), are as follows: band 1: < 40%; band 2: ≥ 40% and < 60%; band 3: ≥ 60%

>>> discrete_label("CCCCCNC(=N)N/N=C/c1c[nH]c2ccc(OC)cc12.O=C(O)/C=C\\C(=O)O [TEGASEROD MALEATE]")
"band 3"
>>> discrete_label("Cc1ccc(NC(=O)Nc2cc(C(F)(F)F)ccc2F)cc1Nc1ccc2c(c1)NC(=O)/C2=C\\c1ccc[nH]1")
"band 1"
>>> discrete_label("CN1C(=O)[C@@H](NC(=O)c2cc3ccccc3[nH]2)N=C(c2ccccc2)c2ccccc21 [DEVAZEPIDE]")
"band 3"
>>> discrete_label("CC(/C=C1\\SC(=S)N(CCCC(=O)Nc2ccc(C(=O)O)c(O)c2)C1=O)=C\\c1ccccc1")
"band 2"
>>> discrete_label("CC[C@@H]1C(=O)N(C)c2cnc(Nc3ccc(C(=O)NC4CCN(C)CC4)cc3OC)nc2N1C1CCCC1 [BI-2536]")
"band 1"
>>> discrete_label("CC[C@H](Nc1ncnc2[nH]cnc12)c1nc2cccc(F)c2c(=O)n1-c1ccccc1 [IDELALISIB]")
"band 1"
>>> discrete_label("Cl.NC[C@@H]1O[C@H](C23CC4CC(CC(C4)C2)C3)Cc2c1ccc(O)c2O")
"band 3"
>>> discrete_label("C=CC(=O)Nc1cc(-n2c(=O)ccc3cnc4ccc(-c5ccc(NS(C)(=O)=O)cc5)cc4c32)ccc1C")
"band 2"
>>> discrete_label("Cc1c(P(=S)(c2ccccc2)c2ccccc2)n2ccccc2[n+]1C/C=C/c1ccccc1.[Br-]")
"band 3"
>>> discrete_label("N#Cc1cccc(C(=O)Nc2cc(-c3ccccc3)nn2-c2ccccc2)c1")
"band 3"
>>> discrete_label("CCOC(=O)CCNc1cc(N2CCc3ccccc3CC2)nc(-c2ccccn2)n1")
"band 1"
>>> discrete_label("Cc1ccc(S(=O)(=O)NC2c3ccccc3Oc3ccccc32)cc1")
"band 1"
>>> discrete_label("CC(Cc1ccc(O)c(O)c1)C(C)Cc1ccc(O)c(O)c1 (stereo not drawn) [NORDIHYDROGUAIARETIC ACID]")
"band 2"
>>> discrete_label("N#CCNC(=O)c1ccc(-c2ccnc(Nc3ccc(N4CCOCC4)cc3)n2)cc1 [MOMELOTINIB]")
"band 1"
>>> discrete_label("Oc1cccc(-c2nc(N3CCOCC3)c3oc4ncccc4c3n2)c1 [PI-103]")
"band 3"
>>> discrete_label("CCCc1cc(C)[nH]c(=O)c1CNC(=O)c1cc(-c2ccc(N3CCN(C(C)C)CC3)nc2)cc2c1cnn2C(C)C")
"band 3"
>>> discrete_label("Cc1c(Nc2ccc(S(=O)(=O)N3CCN(C)CC3)cc2F)nc2ccc(Nc3cnn(C4CC4)c3)cn2c1=O")
"band 1"

====

system: Fibroblast; assay: Multiplex assay against human fibroblast; assay type: toxicity, cell-based; settings: 12 h, 1 µM, compound concentration 1 uM, replicate 1
quantity-kind: Population Apoptotic (%)

>>> meas_value("N#CCNC(=O)c1ccc(-c2ccnc(Nc3ccc(N4CCOCC4)cc3)n2)cc1")
64
>>> meas_value("CC[C@H](Nc1ncnc2[nH]cnc12)c1nc2cccc(F)c2c(=O)n1-c1ccccc1")
91
>>> meas_value("CCOC(=O)CCNc1cc(N2CCc3ccccc3CC2)nc(-c2ccccn2)n1")
89
>>> meas_value("CC(C)[C@H](CO)Nc1nc(Nc2cccc(Cl)c2)c2ncn(C(C)C)c2n1")
65
>>> meas_value("CCCCN(CC)c1nc(C)nc2c1c(C)cn2-c1c(C)cc(C)cc1C.Cl")
63
>>> meas_value("CC(Cc1ccc(O)c(O)c1)C(C)Cc1ccc(O)c(O)c1 (centres undefined) [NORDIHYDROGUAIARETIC ACID]")
66
>>> meas_value("Cl.NC[C@@H]1O[C@H](C23CC4CC(CC(C4)C2)C3)Cc2c1ccc(O)c2O")
60
>>> meas_value("Cc1ccc(S(=O)(=O)NC2c3ccccc3Oc3ccccc32)cc1")
57
>>> meas_value("C[C@@H](Oc1cc(-n2cnc3ccc(CN4CCN(C)CC4)cc32)sc1C(N)=O)c1ccccc1C(F)(F)F")
75

====

system: HEK-293T; assay: Multiplex assay against HEK293T; assay type: toxicity, cell-based; conditions: human, 48 h, 1 µM, compound concentration 1 uM, replicate 1
quantity-kind: Population Apoptotic (%)

>>> meas_value("CCCc1cc(C)[nH]c(=O)c1CNC(=O)c1cc(-c2ccc(N3CCN(C(C)C)CC3)nc2)cc2c1cnn2C(C)C")
75
>>> meas_value("N#Cc1cccc(C(=O)Nc2cc(-c3ccccc3)nn2-c2ccccc2)c1")
46
>>> meas_value("CCCCN(CC)c1nc(C)nc2c1c(C)cn2-c1c(C)cc(C)cc1C.Cl")
43
>>> meas_value("CC(C)[C@H](CO)Nc1nc(Nc2cccc(Cl)c2)c2ncn(C(C)C)c2n1")
49
>>> meas_value("Cl.NC[C@@H]1O[C@H](C23CC4CC(CC(C4)C2)C3)Cc2c1ccc(O)c2O")
14
>>> meas_value("Cc1c(P(=S)(c2ccccc2)c2ccccc2)n2ccccc2[n+]1C/C=C/c1ccccc1.[Br-]")
69
>>> meas_value("CC(C)c1cc(Nc2nc(N3CCC[C@H](N)C3)ncc2C(N)=O)cc(C(C)C)n1")
72

====

tested on: U2OS; assay: Incucyte cell viability with U2OS; type: toxicity, cell-based; conditions: human, 6 h, 10 µM, compound concentration 10 uM, replicate number 1, timepoint 6 hours; note: filed as whole numbers so only -1 and 0 and 1 occur
Listed next: entries and their corresponding Growth Rate.
quantity-kind: Growth Rate

>>> meas_value("C/C(=N\\NC(=O)[C@@H]1C(=O)NC[C@H]1c1ccccc1)c1cccc(Br)c1")
0
>>> meas_value("COc1cccc(CNC(=O)c2nc3scc(COCc4ccc(C(=O)O)cc4)c3c(=O)[nH]2)c1 [T-26c]")
1
>>> meas_value("CN(CCOc1ccc(CC2SC(=O)NC2=O)cc1)c1ccccn1 (centres undefined)")
0
>>> meas_value("CC(C)(Cc1ccccc1)NCC(O)c1ccc(O)c(NS(C)(=O)=O)c1.Cl (centres undefined) [ZINTEROL HYDROCHLORIDE]")
0

====

Readings of Population Pyknosed Nuclei (%) for the listed compounds
test system: Fibroblast; assay: Multiplex assay against human fibroblast; format: toxicity, cell-based; conditions: 48 h, 10 µM, compound concentration 10 uM, replicate 1
quantity-kind: Population Pyknosed Nuclei (%)

>>> meas_value("Cc1c(P(=S)(c2ccccc2)c2ccccc2)n2ccccc2[n+]1C/C=C/c1ccccc1.[Br-]")
42
>>> meas_value("Oc1cccc(-c2nc(N3CCOCC3)c3oc4ncccc4c3n2)c1 [PI-103]")
20
>>> meas_value("CC(/C=C1\\SC(=S)N(CCCC(=O)Nc2ccc(C(=O)O)c(O)c2)C1=O)=C\\c1ccccc1")
9
>>> meas_value("c1ccc(-c2oc3ncnc(NC[C@@H]4CCCO4)c3c2-c2ccccc2)cc1")
11
>>> meas_value("CCCCN(CC)c1nc(C)nc2c1c(C)cn2-c1c(C)cc(C)cc1C.Cl")
4
>>> meas_value("CC(C)C[C@H](NC(=O)[C@H](Cc1ccccc1)NC(=O)CNC(=O)CNC(=O)[C@@H](N)Cc1ccc(O)cc1)C(=O)O [ENKEPHALIN]")
12
>>> meas_value("CN1CCN(Cc2ccc(-c3cnc4[nH]cc(-c5ccc6[nH]ccc6c5)c4c3)cc2)CC1")
10
>>> meas_value("CN(c1cc(C(F)(F)F)nc(OCCC(=O)O)n1)c1cccc2c1CCC2")
7
>>> meas_value("CCCCCNC(=N)N/N=C/c1c[nH]c2ccc(OC)cc12.O=C(O)/C=C\\C(=O)O [TEGASEROD MALEATE]")
30

====

# Growth Rate per entry
test system: Fibroblast; assay: Incucyte cell viability with human fibroblast; assay type: toxicity, cell-based; conditions: 24 h, 10 µM, compound concentration 10 uM, replicate number 1, timepoint 24 hours; note: filed as whole numbers so only -1 and 0 and 1 occur
quantity-kind: Growth Rate

>>> meas_value("CC[C@@H]1C(=O)N(C)c2cnc(Nc3ccc(C(=O)N[C@H]4CC[C@H](N5CCN(CC6CC6)CC5)CC4)cc3OC)nc2N1C(C)C")
0
>>> meas_value("N#Cc1cccc(C(=O)Nc2cc(-c3ccccc3)nn2-c2ccccc2)c1")
0
>>> meas_value("COc1ccc2c(c1)O[C@@H](c1ccc(OC)c(OC)c1)C[C@H]2NC(=O)C1(c2ccc3c(c2)OC(F)(F)O3)CC1")
1
>>> meas_value("Cn1cc(Cl)c2c(Oc3c(F)cc(Nc4cc(Cl)nc(N)n4)cc3F)ccnc21")
1
>>> meas_value("Cc1c(Nc2ccc(S(=O)(=O)N3CCN(C)CC3)cc2F)nc2ccc(-c3cnn(C4CC4)c3)cn2c1=O")
1
>>> meas_value("CCCOc1ccn2c(C(C)=O)cc(-c3cccc(OC)c3)c2c1")
1
>>> meas_value("CS(=O)(=O)N1CCCC(NC(=O)[C@H](CCC2CCCCC2)NC(=O)c2ccc(CNC(=O)c3cnc4ccccn34)cc2)C1 (stereo partly specified)")
0
>>> meas_value("CC[C@@H]1CN(C(=O)NCC(F)(F)F)C[C@@H]1c1cnc2cnc3[nH]ccc3n12")
1
>>> meas_value("CNC(=O)Nc1ccc2c(c1)CC[C@@]21OC(=O)N(CC(=O)N(Cc2ccc(F)cc2)[C@@H](C)C(F)(F)F)C1=O")
1
>>> meas_value("CC(Cc1ccc(O)c(O)c1)C(C)Cc1ccc(O)c(O)c1 (stereo unspecified) [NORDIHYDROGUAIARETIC ACID]")
0
>>> meas_value("CC[C@@H]1C(=O)N(C)c2cnc(Nc3ccc(C(=O)NC4CCN(C)CC4)cc3OC)nc2N1C1CCCC1")
0
>>> meas_value("CCOC(=O)c1ccc(C#Cc2ccc3c(c2)C(C)(C)CCS3)nc1")
0
>>> meas_value("COc1cccc(CNC(=O)c2nc3scc(COCc4ccc(C(=O)O)cc4)c3c(=O)[nH]2)c1 [T-26c]")
1
>>> meas_value("CCOP(=O)(OCC)C(=Cc1cc(C(C)(C)C)c(O)c(C(C)(C)C)c1)P(=O)(OCC)OCC")
0
>>> meas_value("CCCCC#Cc1nc(NC)c2ncn([C@@H]3O[C@H](CO)[C@@H](O)[C@H]3O)c2n1")
1
>>> meas_value("Cc1ccc(NC(=O)Nc2cc(C(F)(F)F)ccc2F)cc1Nc1ccc2c(c1)NC(=O)/C2=C\\c1ccc[nH]1")
0
